Test system: hiPSC lines (19c3 and 23c1)
protocol.details: hiPSC growth titration assay: 1-5 passages in 12-well plates, then resazurin viability assay
condition: titration, daily medium change
Structures can show the parent of a compound that is named as a salt.
endpoint.label: suitable concentration compared with that in DMEM/F12

Solved entries (count: 9):
N[C@@H](Cc1c[nH]cn1)C(=O)O [histidine, L-Histidine HCl•H2O]	approximately suitable
CSCC[C@H](N)C(=O)O	approximately suitable
Cl.NCCCC[C@H](N)C(=O)O [lysine, L-Lysine HCl]	approximately suitable
O[C@H]1[C@H](O)[C@@H](O)[C@H](O)[C@@H](O)[C@H]1O	higher concentrations
CC(C)C[C@H](N)C(=O)O	approximately suitable
C[C@@H](O)[C@H](N)C(=O)O	approximately suitable
[Ca+2].[Cl-].[Cl-] [CaCl2, Calcium chloride (CaCl2)]	could be reduced
N[C@@H](Cc1ccc(O)cc1)C(=O)O [tyrosine, L-Tyrosine disodium salt hydrate]	approximately suitable
[Cl-].[K+] [KCl, Potassium chloride (KCl)]	could be reduced

API: the following record is the query input.
compound CC(C)(CO)[C@@H](O)C(=O)NCCC(=O)[O-].CC(C)(CO)[C@@H](O)C(=O)NCCC(=O)[O-].[Ca+2] [D-pantothenic acid, D-Pantothenic acid hemicalcium salt (B5)] , suitable concentration compared with that in DMEM/F12 observed: higher concentrations
